Form field: Avg % binding huGPC3 (RU observed/theoretical) (one value per entry).
# SYSTEM_TESTED: T1, recombinant human GPC3 (glypican-3) (human, UniProt P51654 25-559)
# T1 construct: also called huGPC3; hGPC3
# EXPERIMENTAL_PROTOCOL: SPR (Biacore T200), antibody captured by anti-Fc, GPC3 injected
Quick note: give the figure in %, leave out the unit.

Before answering, review these 2 worked examples.
[[record]]
binder = "v40214, H18L6_LC_N33T mAb (antibody, human IgG1, kappa, V domains shown, no number given for this variant) VH: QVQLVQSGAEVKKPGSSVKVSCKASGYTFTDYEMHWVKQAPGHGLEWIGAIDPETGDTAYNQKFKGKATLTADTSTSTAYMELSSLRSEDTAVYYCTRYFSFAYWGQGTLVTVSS VL: EIVLTQSPATLSLSPGERATISCRSSQSLRHSTGNTYLQWYQQKPGQAPRLLIYKVSNRFSGVPARFSGSGSGTDFTLTISSLEPEDFAVYFCYQSKHVPYTFGGGTKVEIKR"
result_value = 21.3

[[record]]
binder = "v40210, H18L6_LC_G34S mAb (antibody, human IgG1, kappa, V domains shown, no number given for this variant) VH: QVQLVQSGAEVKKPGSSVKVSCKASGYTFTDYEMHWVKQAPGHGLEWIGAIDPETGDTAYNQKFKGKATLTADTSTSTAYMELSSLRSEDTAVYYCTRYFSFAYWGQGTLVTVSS VL: EIVLTQSPATLSLSPGERATISCRSSQSLRHSNSNTYLQWYQQKPGQAPRLLIYKVSNRFSGVPARFSGSGSGTDFTLTISSLEPEDFAVYFCYQSKHVPYTFGGGTKVEIKR"
result_value = 42.8


In: Could you tell me which Avg % binding huGPC3 (RU observed/theoretical) is on file for v40216, H18L6_LC_N33R mAb (antibody, human IgG1, kappa, V domains shown, no number given for this variant) VH: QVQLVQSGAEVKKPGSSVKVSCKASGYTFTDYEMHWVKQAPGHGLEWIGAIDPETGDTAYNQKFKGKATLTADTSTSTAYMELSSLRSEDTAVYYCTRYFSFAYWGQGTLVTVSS VL: EIVLTQSPATLSLSPGERATISCRSSQSLRHSRGNTYLQWYQQKPGQAPRLLIYKVSNRFSGVPARFSGSGSGTDFTLTISSLEPEDFAVYFCYQSKHVPYTFGGGTKVEIKR ?
Out: 15.8

This collection of values is drawn from patent US20250295799A1.
